Where these numbers come from: patent US20160221948A1

- target-under-test: human SSTR4 (Homo sapiens)
- experimental-protocol: Evaluation of agonist activities using human SSTR4-stably expressing cells (aequorin luminescence)
- experimental-parameters: luminescence signal; 1 μmol/L somatostatin taken as 100%
recorded-metric: EC50 (nM)

Study these solved cases before continuing.
Qu. Item CN1CCC[C@H](C(=O)NC(C)(C)c2ccc(Cl)cc2Cl)C1 has what recorded EC50?
Ans. 1.3

Qu. C[C@@H]1CC[C@@H](C(=O)NC(C)(C)c2cccc(Cl)c2Cl)CN1C (relative stereo) , same question.
Ans. 7.8

Qu. What do you have for C[C@@H]1CC[C@@H](C(=O)NC(C)(C)c2cccc3ccccc23)CN1C (relative stereo) ?
Ans. 1.1

Qu. Request: Cc1cc(C(C)(C)NC(=O)[C@H]2CCCN(C)C2)ccc1Cl
Ans. 10

1 = CC(C)N1CCC[C@H](C(=O)NC(C)(C)c2ccccc2Cl)C1
2 = CN1CC(C(=O)NC(C)(C)c2cccc(Cl)c2Cl)CCC1(C)C (stereo not drawn)
Qu. Which value of EC50 is numerically greater: that of 1 or that of 2 ? Mark your selection by writing its label.
Ans. 2

I = CN1CCC[C@H](C(=O)NC(C)(C)c2ccccc2OC(F)(F)F)C1
II = COC1CC(C(=O)NC(C)(C)c2cccc3ccccc23)CN(C)C1 (stereo not drawn)
Qu. When the recorded EC50 values are compared, which is smaller: that of I or that of II ? Please reply using the label of the selected record.
Ans. II

====

- target-under-test: human SSTR4 (Homo sapiens, UniProt P31391)
- Sequence (P31391 whole entry): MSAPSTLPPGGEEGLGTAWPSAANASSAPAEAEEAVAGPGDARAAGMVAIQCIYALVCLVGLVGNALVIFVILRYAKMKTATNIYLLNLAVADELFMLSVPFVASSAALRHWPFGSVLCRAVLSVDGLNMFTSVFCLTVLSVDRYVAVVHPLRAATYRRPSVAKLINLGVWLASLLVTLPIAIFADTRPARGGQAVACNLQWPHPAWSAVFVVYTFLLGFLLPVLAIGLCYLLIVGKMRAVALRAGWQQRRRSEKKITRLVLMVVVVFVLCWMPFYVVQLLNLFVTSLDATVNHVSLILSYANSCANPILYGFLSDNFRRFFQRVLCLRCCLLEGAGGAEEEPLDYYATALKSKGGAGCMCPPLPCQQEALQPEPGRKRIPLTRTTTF
recorded-metric: Ki (µM)
Dear colleague, please return just the value in µM, with no unit written.

Qu. Given CN1CCC[C@H](C(=O)NC(C)(C)c2cc(Cl)ccc2Cl)C1 [Example 21] , state its recorded Ki.
Ans. 0.021

====

- target-under-test: human SSTR4 (Homo sapiens, UniProt P31391)
- experimental-protocol: Evaluation of agonist activities using human SSTR4-stably expressing cells (aequorin luminescence)
- experimental-parameters: luminescence signal; 1 μmol/L somatostatin taken as 100%
recorded-metric: EC50 (nM)

1 = CC1CC(C(=O)NC(C)(C)c2cccc(Cl)c2Cl)CN(C)C1 (stereo not shown) [Example 100]
2 = Cc1cccc(C(C)(C)NC(=O)C2CCCN(C)C2)c1Cl (stereo not shown) [Example 13]
Qu. Quick one: lower EC50, 1 or 2 ? Kindly state the label of the option you pick.
Ans. 2
(2: 3.7 nM, 1: 27.9 nM)

====

- target-under-test: UniProtKB P31391
- experimental-protocol: Evaluation of agonist activities using human SSTR4-stably expressing cells (aequorin luminescence)
- experimental-parameters: luminescence signal; 1 μmol/L somatostatin taken as 100%
- Method: Evaluation of Agonist Activities Using Cells that stably expressing human-derived SSTR4 (human SSTR4-stably expressing cells) (1) Human SSTR4-Stably Expressing Cells Human SSTR4-stably expressing cells were prepared, and cultured. Specifically, HEK293 cells, human kidney-derived cells, were used as host cells. […] For detection of luminescence signal due to SSTR4-stimulation, FDSS7000 (manufactured by Hamamatsu Photonics K.K.) was used. […]
pEC50: −log10 of the molar value.
recorded-metric: pEC50

Qu. Entry under review: CN1CCC(C(=O)NC(C)(C)c2cccc3ccccc23)C1 (centres unmarked) . Reported pEC50?
Ans. 8.52

1 = CC[C@@H]1CC[C@H](C(=O)NC(C)(C)c2cccc3ccccc23)CN1C (relative stereo)
2 = Cc1cc(Cl)cc(C(C)(C)NC(=O)[C@H]2CCCN(C)C2)c1
3 = CN1CCC[C@H](C(=O)NC(C)(C)c2cccc(Cl)c2)C1
Qu. Task field, ranking: reported pEC50, descending order. List the labels according to the requested ordering.
Ans. 1, 2, 3
